Target: Biotinylated recombinant human CD3εδ (Acro Biosystems, CDD-H82W6) (human) (UniProt P07766)
Sequence (P07766 23-126, stated change not applied, chain 1 of 2): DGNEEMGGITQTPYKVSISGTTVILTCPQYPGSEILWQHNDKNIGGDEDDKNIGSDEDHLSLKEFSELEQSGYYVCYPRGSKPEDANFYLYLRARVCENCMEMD
Sequence (P04234 22-105, stated change not applied, chain 2 of 2, further chain): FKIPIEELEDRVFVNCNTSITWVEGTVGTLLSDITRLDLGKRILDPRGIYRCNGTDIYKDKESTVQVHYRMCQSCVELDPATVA
Assay: Octet BLI, biotinylated CD3εδ on streptavidin sensors, 1:1 model
readout name: koff (s⁻¹)
All answers are understood in s⁻¹, so give the number only.

binder	readout name	result value
EGFR-CD3 DuetMab with anti-CD3 variant AZ Vκ 29 + AZ VH R82 (bispecific antibody, part only; not given: anti-EGFR arm, constant regions, V domains shown, not shown: another chain or arm of the molecule; a dimerising Fc or GST; small tags and cut ends) VH: EVQLVESGGALVKPGGSLRLSCAASGFTFTRAWMHWVRQAPGKQLEWVAQIKDRSQTYATYYAESVKGRFTISRDDSKNTLYLQMNSLKTEDTAVYYCRGVYYANTPFDYWGQGTLVTVSS VL: DIVMTQSPLSLPVTPGEPASISCRSSQSLVHNTGNTYLSWYLQKPGQSPQSLIYKVSNRASGVPDRFSGSGSGTDFTLKISRVEAEDVGVYYCGQGTQFPFTFGSGTKVEIK	koff	0.0231
EGFR-CD3 DuetMab with anti-CD3 variant AZ Vκ 17 + AZ VH R82 (bispecific antibody, part only; not given: anti-EGFR arm, constant regions, V domains shown, not shown: another chain or arm of the molecule; a dimerising Fc or GST; small tags and cut ends) VH: EVQLVESGGALVKPGGSLRLSCAASGFTFTRAWMHWVRQAPGKQLEWVAQIKDRSQTYATYYAESVKGRFTISRDDSKNTLYLQMNSLKTEDTAVYYCRGVYYANTPFDYWGQGTLVTVSS VL: DIVMTQSPLSLPVTPGEPASISCRSSQSLVHNTGNTYLSWYLQKPGQSPQSLIYKVSNRASGVPDRFSGSGSGTDFTLKISRVEAEDVGVYYCGQGTQAPFTFGSGTKVEIK	koff	0.00928
EGFR-CD3 DuetMab with the parental anti-CD3 arm (bispecific antibody, part only; not given: anti-EGFR arm, constant regions, V domains shown, not shown: another chain or arm of the molecule; a dimerising Fc or GST; small tags and cut ends) VH: QVQLVESGGGVVQPGRSLRLSCAASGFTFTKAWMHWVRQAPGKQLEWVAQIKDKSNSYATYYADSVKGRFTISRDDSKNTLYLQMNSLRAEDTAVYYCRGVYYALSPFDYWGQGTLVTVSS VL: DIVMTQTPLSLSVTPGQPASISCKSSQSLVHNNANTYLSWYLQKPGQSPQSLIYKVSNRFSGVPDRFSGSGSGTDFTLKISRVEAEDVGVYYCGQGTQYPFTFGSGTKVEIK	koff	0.00105
EGFR-CD3 DuetMab with anti-CD3 variant AZ Vκ 29 + AZ VH E79 (bispecific antibody, part only; not given: anti-EGFR arm, constant regions, V domains shown, not shown: another chain or arm of the molecule; a dimerising Fc or GST; small tags and cut ends) VH: EVQLVESGGALVKPGGSLRLSCAASGFTFTEAWMHWVRQAPGKQLEWVAQIKDRSQTYATYYAESVKGRFTISRDDSKNTLYLQMNSLKTEDTAVYYCRGVYYAVTPFDYWGQGTLVTVSS VL: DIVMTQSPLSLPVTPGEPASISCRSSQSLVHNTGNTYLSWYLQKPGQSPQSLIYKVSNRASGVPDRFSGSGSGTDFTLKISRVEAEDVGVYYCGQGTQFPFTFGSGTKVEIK	koff	0.118
EGFR-CD3 DuetMab with anti-CD3 variant AZ Vκ 26 + AZ VH SN75 (bispecific antibody, part only; not given: anti-EGFR arm, constant regions, V domains shown, not shown: another chain or arm of the molecule; a dimerising Fc or GST; small tags and cut ends) VH: EVQLVESGGALVKPGGSLRLSCAASGFTFSNAWMHWVRQAPGKQLEWVAQIKDRSQTYATYYAESVKGRFTISRDDSKNTLYLQMNSLKTEDTAVYYCRGVYYANAPFDYWGQGTLVTVSS VL: DIVMTQSPLSLPVTPGEPASISCRSSQSLVHNTGNTYLSWYLQKPGQSPQSLIYKVSNRASGVPDRFSGSGSGTDFTLKISRVEAEDVGVYYCGQGTQAPFSFGSGTKVEIK	koff	0.0155
EGFR-CD3 DuetMab with anti-CD3 variant AZ Vκ 17 + AZ VH SN82 (bispecific antibody, part only; not given: anti-EGFR arm, constant regions, V domains shown, not shown: another chain or arm of the molecule; a dimerising Fc or GST; small tags and cut ends) VH: EVQLVESGGALVKPGGSLRLSCAASGFTFSNAWMHWVRQAPGKQLEWVAQIKDRSQTYATYYAESVKGRFTISRDDSKNTLYLQMNSLKTEDTAVYYCRGVYYANTPFDYWGQGTLVTVSS VL: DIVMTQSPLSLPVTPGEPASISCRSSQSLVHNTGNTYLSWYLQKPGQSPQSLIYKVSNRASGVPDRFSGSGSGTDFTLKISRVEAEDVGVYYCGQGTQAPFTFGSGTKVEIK	koff	0.0149

Data point: EGFR-CD3 DuetMab with anti-CD3 variant AZ Vκ 17 + AZ VH E82 (bispecific antibody, part only; not given: anti-EGFR arm, constant regions, V domains shown, not shown: another chain or arm of the molecule; a dimerising Fc or GST; small tags and cut ends) VH: EVQLVESGGALVKPGGSLRLSCAASGFTFTEAWMHWVRQAPGKQLEWVAQIKDRSQTYATYYAESVKGRFTISRDDSKNTLYLQMNSLKTEDTAVYYCRGVYYANTPFDYWGQGTLVTVSS VL: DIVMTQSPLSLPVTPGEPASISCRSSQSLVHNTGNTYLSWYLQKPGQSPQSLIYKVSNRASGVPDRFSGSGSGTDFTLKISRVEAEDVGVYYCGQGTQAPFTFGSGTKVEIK ; koff = 0.033
